What GI50 was measured for each of the following?
System Under Test: BaF3 BRAF-KIAA1549 fusion cells (Homo sapiens)
Construct: The BRAF-KIAA1549 fusion mutant was subcloned into pMXs-IRES-Blasticidin (RTV-016, Cell Biolabs, San Diego, CA); No tag given; Q9HCM3 (UPF0606 protein KIAA1549)
Assay Overview: BaF3 BRAF-KIAA1549 fusion cell proliferation assay (CellTiterGlo, 96 hours)
Assay type: cell-based
Condition Set: Table A1

Example results:
>>> result("CNc1cc2ncc(-c3cc(NC(=O)c4ccnc(C(F)(F)F)c4)cnc3C)cc2cn1")
"< 20 nM"
>>> result("CNc1cc2ncc(-c3cc(NC(=O)c4cc(C(C)(C)C#N)ccn4)c(F)cc3Cl)cc2cn1")
"20 to 100 nM"
>>> result("CNc1cc2ncc(-c3cc(NC(=O)c4ccnc(C5(F)CC5)c4)cnc3C)cc2cn1")
"< 20 nM"
>>> result("Cc1ccc(NC(=O)c2cc(C(F)F)ccn2)cc1-c1cnc2cc(NCCC#N)ncc2c1")
"20 to 100 nM"
>>> result("CNc1cc2ncc(-c3cc(NC(=O)c4cc(C(F)(F)F)c(C)cn4)cnc3C)cc2cn1")
"20 to 100 nM"

Please supply GI50 for each of the following items, keeping them in order.
1. CNc1cc2ncc(-c3cc(NC(=O)c4cc(C(C)(C)F)ccn4)ccc3C)cc2cn1
2. CNc1cc2ncc(-c3cc(NC(=O)c4cc(C(F)(F)F)ccn4)cnc3C)cc2cn1
3. CNc1cc2ncc(-c3cc(NC(=O)c4ccnc(C5CC(F)(F)C5)c4)cnc3C)cc2cn1
4. CNc1cc2ncc(-c3cc(NC(=N)c4cc(C(F)(F)F)ccn4)ccc3C)cc2cn1
5. CNc1cc2ncc(-c3cc(NC(=O)c4ccnc(C(C)C)c4)cnc3C)cc2cn1
6. CNc1cc2ncc(-c3cc(NC(=O)c4cc(C(F)F)ccn4)cnc3C)cc2cn1

Outgoing:
100 to 500 nM
< 20 nM
20 to 100 nM
100 to 500 nM
< 20 nM
20 to 100 nM

* * *

System Under Test: BaF3 BRAF-KIAA1549 fusion cells (Homo sapiens, UniProt P15056)
Construct: The BRAF-KIAA1549 fusion mutant was subcloned into pMXs-IRES-Blasticidin (RTV-016, Cell Biolabs, San Diego, CA); No tag given; Q9HCM3 (UPF0606 protein KIAA1549)
Sequence (P15056 whole entry, change not shown, the tested form may be a part): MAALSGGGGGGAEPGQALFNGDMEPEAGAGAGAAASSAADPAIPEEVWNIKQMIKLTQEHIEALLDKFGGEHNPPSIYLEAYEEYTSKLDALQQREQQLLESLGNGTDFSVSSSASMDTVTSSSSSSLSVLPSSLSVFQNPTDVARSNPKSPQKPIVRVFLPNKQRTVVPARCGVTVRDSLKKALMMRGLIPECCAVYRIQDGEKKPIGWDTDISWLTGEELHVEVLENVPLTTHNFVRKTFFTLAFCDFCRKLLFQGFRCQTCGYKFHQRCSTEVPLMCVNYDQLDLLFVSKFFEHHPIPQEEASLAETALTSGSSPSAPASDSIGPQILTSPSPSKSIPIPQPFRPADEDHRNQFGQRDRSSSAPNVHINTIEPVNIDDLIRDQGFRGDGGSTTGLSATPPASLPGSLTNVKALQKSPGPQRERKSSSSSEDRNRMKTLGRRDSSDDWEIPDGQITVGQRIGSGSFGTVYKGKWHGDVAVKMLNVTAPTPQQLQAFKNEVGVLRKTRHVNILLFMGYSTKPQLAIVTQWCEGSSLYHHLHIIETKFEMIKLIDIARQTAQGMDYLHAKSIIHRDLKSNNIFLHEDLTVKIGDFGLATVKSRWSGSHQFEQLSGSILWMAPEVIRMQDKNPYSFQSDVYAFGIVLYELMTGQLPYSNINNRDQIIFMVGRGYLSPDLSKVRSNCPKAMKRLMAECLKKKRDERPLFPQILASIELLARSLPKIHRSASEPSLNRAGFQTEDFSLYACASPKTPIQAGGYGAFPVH
Assay Overview: BaF3 BRAF-KIAA1549 fusion cell proliferation assay (CellTiterGlo, 96 hours)
Assay type: cell-based
Condition Set: Table A1
Reported Property: GI50

Example results:
>>> result("CNc1cc2ncc(-c3cc(NC(=O)CN4CCC[C@H](C(F)(F)F)C4)ccc3C)cc2cn1 [Compound 63]")
"20 to 100 nM"
>>> result("CNc1cc2ncc(-c3cc(C(=O)Nc4cc(C(C)(C)C#N)ccn4)ccc3C)cc2cn1 [Compound 53]")
"20 to 100 nM"
>>> result("CCNc1cc2ncc(-c3cc(NC(=O)c4cc(C(C)(C)C#N)ccn4)cnc3C)cc2cn1 [Compound 175]")
"20 to 100 nM"
>>> result("CNc1cc2ncc(-c3cc(NC(=O)c4ccnc(C(C)(C)C#N)c4)ccc3C)cc2cn1 [Compound 56]")
"20 to 100 nM"
>>> result("CNc1cc2ncc(-c3cc(NC(=O)CN4CCC[C@H](C(F)(F)F)C4)cnc3C)cc2cn1 [Compound 62]")
"20 to 100 nM"

Please supply GI50 for each of the following items, keeping them in order.
1. CNc1cc2ncc(-c3cc(NC(=O)c4cccc(N(C)C)c4)cnc3C)cc2cn1 [Compound 19]
2. CNc1cc2ncc(-c3ccc(F)c(NC(=O)c4cc(C(C)(C)C#N)ccn4)c3)cc2cn1 [Compound 45]
3. CNc1cc2ncc(-c3cc(NC(=O)c4cncc(C(F)(F)F)c4)ccc3C)cc2cn1 [Compound 3]

Outgoing:
< 20 nM
100 to 500 nM
< 20 nM

* * *

What GI50 was measured for each of the following?
System Under Test: BaF3 BRAF-KIAA1549 fusion cells (Homo sapiens, UniProt P15056)
Construct: The BRAF-KIAA1549 fusion mutant was subcloned into pMXs-IRES-Blasticidin (RTV-016, Cell Biolabs, San Diego, CA); No tag given; Q9HCM3 (UPF0606 protein KIAA1549)
Assay Overview: BaF3 BRAF-KIAA1549 fusion cell proliferation assay (CellTiterGlo, 96 hours)
Assay type: cell-based
Condition Set: Table A2
Procedure: Retroviral Production: The BRAF-KIAA1549 fusion mutant was subcloned into pMXs-IRES-Blasticidin (RTV-016, Cell Biolabs, San Diego, CA). Retrovirus was produced by transfection of HEK 293T cells with the retroviral BRAF mutant expression vector pMXs-IRES-Blasticidin (RTV-016, Cell Biolabs), pCMV-Gag-Pol vector and pCMV-VSV-G-Envelope vector. Briefly, HEK 293T cells were plated in Poly-D-lysine coated 6-well plate (2.5×10^5 cells per well) and incubated overnight. […]

>>> result("CNc1cc2ncc(-c3cc(NC(=O)c4n[nH]c5c4C[C@H]4C[C@@H]54)cnc3C)cc2cn1 [Compound 253]")
"20 to 100 nM"
>>> result("CNc1cc2ncc(-c3cc(NC(=O)c4cnc5n4C[C@@H](C)CC5)cnc3C)cc2cn1 (single isomer, unassigned) [Compound 258]")
"20 to 100 nM"
>>> result("CNc1cc2ncc(-c3cc(C(=O)Nc4cc(C(C)(C)C#N)ccn4)cnn3)cc2cn1 [Compound 213]")
"≥ 500 nM"
>>> result("CNc1cc2ncc(-c3cc(NC(=O)c4cnc5n4C[C@H](C)CC5)ccc3C)cc2cn1 (single isomer, unassigned) [Compound 230]")
"20 to 100 nM"
>>> result("CNc1cc2ncc(-c3cc(NC(=O)c4cnc5n4CC(C)CC5)cnc3C)cc2cn1 (stereo not shown) [Compound 225]")
"20 to 100 nM"

Please supply GI50 for each of the following items, keeping them in order.
1. CNc1cc2ncc(-c3cc(NC(=O)c4cccc5c4CCC[C@@H]5O)cnc3C)cc2cn1 (single isomer, unassigned) [Compound 207]
2. CNc1cc2ncc(-c3cc(NC(=O)c4cnc5n4CC(C(F)(F)F)CC5)cnc3C)cc2cn1 (stereo not shown) [Compound 243]

Outgoing:
["≥ 500 nM", "20 to 100 nM"]

* * *

System Under Test: BaF3 BRAF-KIAA1549 fusion cells (Homo sapiens, UniProt P15056)
Construct: The BRAF-KIAA1549 fusion mutant was subcloned into pMXs-IRES-Blasticidin (RTV-016, Cell Biolabs, San Diego, CA); No tag given; Q9HCM3 (UPF0606 protein KIAA1549)
Assay Overview: BaF3 BRAF-KIAA1549 fusion cell proliferation assay (CellTiterGlo, 96 hours)
Type: cell-based
Condition Set: Table A1
What GI50 was measured for each of the following?

Example results:
>>> result("CNc1cc2ncc(-c3cc(NC(=O)c4cncc(C(F)(F)F)c4)cnc3C)cc2cn1 [Compound 21]")
"20 to 100 nM"
>>> result("CNc1cc2ncc(-c3cc(NC(=O)c4nccc(C(F)(F)F)c4F)cnc3C)cc2cn1 [Compound 52]")
"< 20 nM"
>>> result("CNc1cc2ncc(-c3cc(NC(=O)c4ccnc(C(C)(C)C#N)c4)cnc3C)cc2cn1 [Compound 55]")
"< 20 nM"
>>> result("CNc1cc2ncc(-c3cc(F)cc(NC(=O)c4cc(C(C)(C)C#N)ccn4)c3)cc2cn1 [Compound 47]")
"100 to 500 nM"

Please supply GI50 for each of the following items, keeping them in order.
1. CNc1cc2ncc(-c3cc(NC(=O)c4cc(C(C)(C)C#N)ccn4)nnc3C)cc2cn1 [Compound 77]
2. CNc1cc2ncc(-c3cc(NC(=O)c4cc(C(C)(C)C#N)ccn4)cc(F)c3Cl)cc2cn1 [Compound 44]
3. CNc1cc2ncc(-c3cc(C(=O)Nc4cc(C(C)(C)C#N)ccn4)cnc3C)cc2cn1 [Compound 59]
4. CNc1cc2ncc(-c3cc(NC(=O)c4cc(C5(C#N)CC5)ccn4)ccc3C)cc2cn1 [Compound 16]

Outgoing:
1. 20 to 100 nM
2. 20 to 100 nM
3. 20 to 100 nM
4. < 20 nM

* * *

What GI50 was measured for each of the following?
System Under Test: BaF3 BRAF-KIAA1549 fusion cells (Homo sapiens)
Construct: The BRAF-KIAA1549 fusion mutant was subcloned into pMXs-IRES-Blasticidin (RTV-016, Cell Biolabs, San Diego, CA); No tag given; Q9HCM3 (UPF0606 protein KIAA1549)
Assay Overview: BaF3 BRAF-KIAA1549 fusion cell proliferation assay (CellTiterGlo, 96 hours)
Format: cell-based
Condition Set: Table A2

Example results:
>>> result("CNc1cc2ncc(-c3cc(NC(=O)c4cccc5c4NC(=O)C5(C)C)ccc3C)cc2cn1")
"20 to 100 nM"
>>> result("CNc1cc2ncc(-c3cc(NC(=O)c4cccc(C(O)C(F)(F)F)n4)cnc3C)cc2cn1 (stereo not shown)")
"≥ 500 nM"
>>> result("CNc1cc2ncc(-c3cc(NC(=O)c4ccnc(C(C)(C)C#N)c4)c(F)cc3C)cc2cn1")
"20 to 100 nM"
>>> result("CNc1ncc2cc(-c3cc(NC(=O)c4ccnc(C(C)(C)C#N)c4)cnc3C)cnc2c1Cl")
"≥ 500 nM"
>>> result("CNc1cc2ncc(-c3cc(NC(=O)c4cnc5n4C[C@@H](C)CC5)ccc3C)cc2cn1 (single isomer, unassigned)")
"20 to 100 nM"
>>> result("Cc1ccc(NC(=O)c2ccnc(C(C)(C)F)c2)cc1-c1ccc2c3c(ncc2c1)NC(=O)C3")
"< 20 nM"
>>> result("CNc1cc2ncc(-c3cc(NC(=O)c4cnc5n4CC(C(F)(F)F)CC5)ccc3C)cc2cn1 (stereo not shown)")
"20 to 100 nM"
>>> result("CNc1cc2ncc(-c3cc(NC(=O)c4cccc(C(C)(F)F)c4)cnc3C)cc2cn1")
"< 20 nM"
>>> result("CNc1cc2ncc(-c3cc(NC(=O)N(C)c4cc(C(F)F)ccn4)ccc3C)cc2cn1")
"100 to 500 nM"
>>> result("CNc1cc2ncc(-c3cc(NC(=O)c4cccc5c4CCC[C@H]5O)cnc3C)cc2cn1 (single isomer, unassigned)")
"≥ 500 nM"

Please supply GI50 for each of the following items, keeping them in order.
1. CNc1cc2ncc(-c3cc(NC(=O)c4noc5c4CCCC5)ccc3C)cc2cn1
2. CNc1cc2ncc(-c3cc(NC(=O)c4csc5c4CCCC5)cnc3C)cc2cn1
3. CNc1cc2ncc(-c3cc(NC(=O)c4cccc5c4CCCC5O)cnc3C)cc2cn1 (stereo not shown)
4. CNc1cc2ncc(-c3cc(C(=O)Nc4cccc(C(C)(C)C#N)c4)cnn3)cc2cn1

Outgoing:
["100 to 500 nM", "20 to 100 nM", "≥ 500 nM", "≥ 500 nM"]

Please supply GI50 for each of the following items, keeping them in order.
1. CNc1ncc2cc(-c3cc(NC(=O)c4ccnc(C5(F)CC5)c4)ccc3C)cnc2c1Cl
2. CNc1cc2c(C#N)cc(-c3cc(NC(=O)c4ccnc(C5(F)CC5)c4)ccc3C)cc2cn1

Outgoing:
100 to 500 nM
20 to 100 nM
